System: SMN2 CJ mRNA
experiment notes: Gene panel canonical junction qPCR assay, SMN2
Assay type: cell-based
details: decrease in CJ mRNA levels, gene panel; read-out: SMN2 IC50
property label: IC50

Here's what some known entries look like.
| chemical smiles | result |
| --- | --- |
| Cc1nc2c(F)cc(-c3ccc4c(c3)CCN(C3CCNCC3)C4=O)cc2s1 | 100 to 1000 nM |
| Cc1cn2nc(-c3ccc4c(=O)n(C5CCNCC5)ncc4c3)nc2c(C)n1 | 100 to 1000 nM |
| CN1CCN(c2ccc3c(=O)n(-c4ccc5cn(C)nc5c4)cnc3c2)CC1 | > 10000 nM |
| Cc1cc(-c2ccc3c(c2)CCN(C2CCNCC2)C3=O)cc2cn(C)nc12 | < 100 nM |
| Cc1cn2nc(-c3ccc4c(=O)n([C@H]5CCN(C)[C@H](C)C5)ncc4c3)cc(C)c2n1 | < 100 nM |
| Cc1nc2c(F)cc(-c3ccc4c(=O)n(C5CCN(C)CC5)cnc4c3)cc2s1 | 1000 to 10000 nM |
| Cc1cn2cc(-c3ccc4c(=O)n(C5CCN(C)CC5)cnc4c3)ncc2n1 | 100 to 1000 nM |

Continue with the next molecule.
Which IC50 value belongs to "Cc1cn2cc(-c3ccc4c(=O)n(C5CCN(C)CC5)cnc4c3)nc2c(C)n1" ?
100 to 1000 nM

====

System: SMN2 CJ mRNA
experiment notes: Gene panel canonical junction qPCR assay, SMN2
Type: cell-based
details: decrease in CJ mRNA levels, gene panel; read-out: SMN2 IC50
property label: IC50

Here's what some known entries look like.
| compound | measured on | result |
| --- | --- | --- |
| O=c1c2ccc(-c3cn[nH]c3)cc2ncn1C1CCNCC1 [Compound 284] | SMN2 CJ mRNA | 1000 to 10000 nM |
| O=C1c2ccc(-c3cn[nH]c3)cc2CCN1C1CCNCC1 [Compound 220] | SMN2 CJ mRNA | > 10000 nM |
| Cc1cn2nc(-c3ccc4c(=O)n(C5CCNC6(CC6)C5)ncc4c3)cc(C)c2n1 (stereo not drawn) [Compound 274] | SMN2 CJ mRNA | < 100 nM |
| Cn1cc2cc(-c3ccc4c(=O)n(C5CCNCC5)cnc4c3)cc(F)c2n1 [Compound 206] | SMN2 CJ mRNA | < 100 nM |
| Cc1cn2nc(-c3ccc4c(=O)n(C5CCN(C)CC5)cnc4c3F)cc(C)c2n1 [Compound 290] | SMN2 CJ mRNA | 100 to 1000 nM |
| Cc1cn2nc(-n3cnc4cc(N5CCNCC5)ccc4c3=O)cc(C)c2n1 [Compound 241] | SMN2 CJ mRNA | 1000 to 10000 nM |

Which IC50 value belongs to Cc1cn2cc(-n3cnc4cc(N5CCN(C)CC5)ccc4c3=O)cc(F)c2n1 [Compound 229] ?
> 10000 nM

Which IC50 value belongs to Cc1cn2cc(-c3ccc4c(=O)n(C5CCN(C)CC5)cnc4c3)cc(F)c2n1 [Compound 207] ?
100 to 1000 nM

Which IC50 value belongs to Cc1cn2nc(-c3ccc4nc(NC5CCNCC5)[nH]c(=O)c4c3)cc(C)c2n1 [Compound 192] ?
> 10000 nM
